Target: T1, RAD52(209) (human, UniProt P43351 1-209)
T1 sequence: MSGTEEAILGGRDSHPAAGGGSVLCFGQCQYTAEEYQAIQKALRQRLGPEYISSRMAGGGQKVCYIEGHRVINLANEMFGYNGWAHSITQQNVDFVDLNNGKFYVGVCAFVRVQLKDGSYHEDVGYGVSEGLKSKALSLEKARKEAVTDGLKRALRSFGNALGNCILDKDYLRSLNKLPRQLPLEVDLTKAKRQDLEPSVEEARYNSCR
Experiment: EMSA; 25 C; Hill 1.6 ± 0.3; EMSA: 25 mM Tris-acetate, 2 mM Mg(OAc)2, 1 mM DTT, pH 7.5, 10 nM ssDNA, 25 C 10 min or 37 C 5 min; mass photometry: 20 mM Tris-HCl, 50 mM NaCl, pH 7.5
Settings: protein: recombinant; tags: His-tag (pET-15b); chain copies: 11
measurement.label: Kd
Write the numeric value and follow it with the unit.

Ask | Kd lookup needed for 70 nt (ssDNA) DNA: TTTAATAATTTACTTTATTTTCTATGTCTATTCATTTACTTATTGTGTATTATCCTTATACTTACTTAC , thanks.
Reply | 109 nM
